test: ATG_TAL_CIS: Attagene CIS-FACTORIAL HepG2 Assay for human TAL Basal Promoter (AID 2282966);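 also: background control endpoint measuring basal TAL promoter reporter mRNA not a specific factor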
measurement-context: HepG2 Attagene cis-factorial TAL promoter reporter; actives raise or lower the signal
Calls of active or inactive are those of the source. The calls were made as follows: active = hit-call score of the fitted dose curve at least 0.9, where 1 is the maximum; inactive = score below 0.9.
Would you mind answering with one of these outcomes? 1 (active), -1 (inactive)

Take a look at these entries with their results.
CC(CCO)CCc1ccccc1 (stereo not given)
-1
O=S(=O)(O)c1ccc(O)c2ncccc12
-1
CCCCCCCCCOC(C)=O
-1

Q. Please state the recorded outcome for this compound: NCCNCCN
A. -1

Q. Please state the recorded outcome for this compound: CC[C@]12CCCN3CCc4c(n(c5ccccc45)[C@@](O)(C(=O)OC)C1)[C@@H]32
A. -1

Q. Please state the recorded outcome for this compound: CCO[Si](CCCS)(OCC)OCC
A. -1

Q. Please state the recorded outcome for this compound: O=C=NC1CCC(CC2CCC(N=C=O)CC2)CC1 (stereo not given)
A. 1

---

Read-out: Matrix Metallopeptidase 9 (MMP9), MMP9 (gene 4318)
test: BSK_KF3CT_MMP9: BioMAP Diversity Plus: KF3CT Assay for Matrix Metallopeptidase 9 (MMP9) Biomarker Activity (AID 2283074)
measurement-context: primary human keratinocytes with fibroblasts; actives raise or lower the signal
Activity calls are given as the source filed them. Rule for the calls: active = hit-call score of the fitted dose curve at least 0.9, where 1 is the maximum; inactive = score below 0.9.
Would you mind answering with one of these outcomes? true for active, false for inactive

Take a look at these entries with their results.
N#Cc1ccc(CC(=NNC(=O)Nc2ccc(OC(F)(F)F)cc2)c2cccc(C(F)(F)F)c2)cc1
false
C#C[C@]1(O)CC[C@H]2[C@@H]3CCC4=Cc5oncc5C[C@]4(C)[C@H]3CC[C@@]21C
true
CCCCC(CC)COC(=O)/C=C\C(=O)OCC(CC)CCCC (configuration not stated)
false
CC(C)(COC(=O)c1ccccc1)COC(=O)c1ccccc1
false

Q. Please state the recorded outcome for this compound: OC1OC[C@@H](O)[C@H](O)[C@H]1O (some centres not stated)
A. false

Q. Please state the recorded outcome for this compound: CC(=O)Nc1ccccc1O
A. false

Q. Please state the recorded outcome for this compound: Cc1cc(C2(c3cc(C)c(O)cc3C)OS(=O)(=O)c3ccccc32)c(C)cc1O
A. false

---

test: ATG_AP_2_CIS: Attagene CIS-FACTORIAL HepG2 Assay for human Activator Protein 2 (AP-2) (AID 2282932)
measurement-context: HepG2 AP-2 cis-reporter, Attagene transcription factor profiling; actives raise or lower the signal
Experimental: ATG_CIS is a cell-based, multiplexed-readout assay that uses HepG2, a human liver cell line, with measurements taken at 24 hours after chemical dosing in a 24-well plate.ATG_AP_2_CIS is one of 52 assay component(s) measured or calculated from the ATG_CIS assay. […] This assay endpoint, ATG_AP_2_CIS, was analyzed with bidirectional fitting relative to DMSO as the negative control and baseline of activity. […]
Calls of active or inactive are those of the source. How the source made its calls: active means hit-call score of the fitted dose curve at least 0.9, where 1 is the maximum; inactive means score below 0.9.
assay-endpoint: outcome

Cc1ccc(C(=O)O)o1
inactive
CC1CCC2CC1C2(C)C (configuration not stated)
inactive
Nc1ccc(F)c([N+](=O)[O-])c1
inactive
CC(=O)c1c(C)cc(C(C)(C)C)cc1C
inactive
O=C(O)c1ccc(C(=O)O)cc1
inactive
CC(=O)OCCC(C)CC(C)(C)C (configuration not stated)
inactive

Q. Would you mind telling me what outcome value was observed for CC(C)CCCCCCCOC(=O)c1ccc(C(=O)OCCCCCCCC(C)C)c(C(=O)OCCCCCCCC(C)C)c1 ?
A. inactive
